Experiment: Cell Viability - LYMP2-003 (AID 965);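 also: cells exposed to compounds for 24 h before reading; nearly all actives have a fitted effect of over 50% in size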
Conditions: LYMP2-003 lymphoblastoid cell viability; series mostly up to 92.2 µM
Records with an inconclusive call do not appear. Calls of active or inactive are those of the source. Calls follow the shape of the dose curve; as a rule, active = well fitted cell-killing curve with a large enough effect; inconclusive = small, poorly fitted or top-dose-only effect, or effect the other way; inactive = flat fitted curve, though single readings scatter.
Response enum: active, inactive

molecular_string=N=C1N=C(N)c2cc3ccccc3cc21 assigned_category=active
molecular_string=Nc1ccc([N+](=O)[O-])cc1O assigned_category=inactive
molecular_string=CCCOC(=O)c1ccc(O)cc1 assigned_category=inactive
molecular_string=Oc1ccccc1O assigned_category=inactive
molecular_string=COc1cc(/C=C/C(=O)CC(=O)/C=C/c2ccc(O)c(OC)c2)ccc1O assigned_category=active

-- ask Test call, this compound: `COc1cc(CNC(=O)CCCC/C=C/C(C)C)ccc1O`
-- reply inactive

-- ask Test call, this compound: `CN(C)c1ccc(N=NS(=O)(=O)O)cc1`
-- reply inactive

-- ask Test call, this compound: `Nc1nc2ccc([N+](=O)[O-])cc2s1`
-- reply inactive

-- ask Test call, this compound: `O=c1cc(-c2ccccc2)oc2ccccc12`
-- reply inactive

-- ask Test call, this compound: `c1ccc2sc(SSc3nc4ccccc4s3)nc2c1`
-- reply inactive

-- ask Test call, this compound: `NCCO`
-- reply inactive
